This collection of values is drawn from patent US20240409663A1.

# STUDY_TARGET: T1, human GPC3-his tag protein (human, UniProt P51654 25-559, limits assumed)
# T1 construct: recombinant soluble antigen used as analyte in all Biacore runs; also called recombinant GPC3 protein; rhGPC3-His; not shown: His tag
# TEST_PROTOCOL: SPR Biacore 8K, mAb captured, affinity ranking
Labelling: koff reported below 0.0006 s⁻¹ becomes Criterion met; at or above becomes Criterion not met.

Does the reported koff of the following binder sit strictly below 0.0006 s⁻¹? 52H5D3B8-6# chimeric mAb (antibody, V domains shown, CDR3 mutant of the 52H5D3B8 chimeric mAb (human IgG1); also called 52H5D3B8-6#-VH+VL) VH: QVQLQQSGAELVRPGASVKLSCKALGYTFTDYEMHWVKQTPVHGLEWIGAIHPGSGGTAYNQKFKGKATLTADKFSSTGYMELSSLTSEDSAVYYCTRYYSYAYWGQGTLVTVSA VL: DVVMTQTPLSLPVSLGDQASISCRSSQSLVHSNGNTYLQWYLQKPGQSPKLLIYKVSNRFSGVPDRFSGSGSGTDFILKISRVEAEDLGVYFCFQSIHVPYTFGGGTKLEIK
Criterion met

Determine if 52H5D3B8-6#-VH2+VL3 (antibody, V domains shown, humanized) VH: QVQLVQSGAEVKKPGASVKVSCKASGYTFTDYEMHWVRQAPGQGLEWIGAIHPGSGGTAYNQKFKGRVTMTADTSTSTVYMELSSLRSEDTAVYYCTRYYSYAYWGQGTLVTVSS VL: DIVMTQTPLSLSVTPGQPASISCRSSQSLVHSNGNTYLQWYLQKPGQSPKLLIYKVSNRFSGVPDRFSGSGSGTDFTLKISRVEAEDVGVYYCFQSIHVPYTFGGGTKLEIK shows koff strictly lower than 0.0006 s⁻¹.
Criterion not met

API: query returns whether the binder falls strictly under 0.0006 s⁻¹ in koff. Query: 52H5D3B8-6#-VH2+VL2 (antibody, V domains shown, humanized) VH: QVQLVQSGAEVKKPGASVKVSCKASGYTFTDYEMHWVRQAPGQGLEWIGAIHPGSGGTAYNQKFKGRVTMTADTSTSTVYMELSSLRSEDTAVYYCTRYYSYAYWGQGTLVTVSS VL: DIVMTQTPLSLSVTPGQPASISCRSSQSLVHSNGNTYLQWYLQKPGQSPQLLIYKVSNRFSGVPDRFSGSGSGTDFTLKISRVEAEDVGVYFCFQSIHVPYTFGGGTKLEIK
Criterion not met

Just wondering, is koff of 52H5D3B8-6#-VH3+VL4 (antibody, V domains shown, humanized) VH: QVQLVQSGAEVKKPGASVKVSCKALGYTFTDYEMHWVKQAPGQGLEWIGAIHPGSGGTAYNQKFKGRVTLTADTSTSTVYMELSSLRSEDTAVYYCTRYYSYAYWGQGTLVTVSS VL: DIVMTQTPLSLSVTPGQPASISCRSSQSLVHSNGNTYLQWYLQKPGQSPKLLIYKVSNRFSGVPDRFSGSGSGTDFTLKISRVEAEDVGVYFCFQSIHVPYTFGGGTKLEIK below 0.0006 s⁻¹?
Criterion met

Check if koff falls below 0.0006 s⁻¹ for 52H5D3B8-6#-VH4+VL2 (antibody, V domains shown, humanized) VH: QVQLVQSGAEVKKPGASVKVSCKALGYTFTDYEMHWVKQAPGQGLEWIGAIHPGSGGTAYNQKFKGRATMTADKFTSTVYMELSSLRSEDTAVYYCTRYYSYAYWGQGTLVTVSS VL: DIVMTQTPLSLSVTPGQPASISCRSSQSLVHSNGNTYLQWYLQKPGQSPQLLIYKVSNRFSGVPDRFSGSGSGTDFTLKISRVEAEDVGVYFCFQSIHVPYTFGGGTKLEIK .
Criterion not met
